Attribution: patent US9340577B2

experimentalSystem: A*0202 (Homo sapiens, UniProt P04439, D140Y/D185E/D98H/E176V/E277Q/G131W/G231S/I119L/I121R/I166T/I218V/L180W/L300P/L318F/N151K/N90K/P208A/P217A/Q67R/Q86G/Q94H/R138H/R169H/T345S)
runDescription: biochemical
Assay type: binding
pIC50: −log10 of the molar value. No end group written: not given here.

biopolymerSequence	pIC50
ITVNNSGSYV [Peptide 9013.0187]	6.48
FLGALKSFL [Peptide 1578.11]	9.52
RMLQQLLFI [Peptide 1525.12]	6.89
FLVAFKQFL [Peptide 1578.42]	9.37
TILQQLLFI [Peptide 1525.26]	5.56
QLHTQELFI [Peptide 9013.0079]	7.60
GMGCTGWFEV [Peptide 1578.19]	7.43
QQHTQVLFV [Peptide 9013.0102]	5.85
TLELFIPNITV [Peptide 9013.0299]	6.30
ALYSWLIDGNI [Peptide 9013.0315]	8.44
RLYVCGIQNSV [Peptide 9013.0335]	8.20
FLGAFKKFL [Peptide 1578.22]	8.00
EVLLLVHNV [Peptide 9013.0021]	5.20
RLLLTASLLV [Peptide 9013.0117]	6.91
FQQSTQELFV [Peptide 9013.0178]	7.68
KLMSQLLNI [Peptide 1578.29]	8.80
KLTPLCVIL [Peptide 1516.15]	7.13
RILQQMLFI [Peptide 1525.22]	6.15
YTCGIQNSV [Peptide 9013.0096]	7.15
VQWAFDNEL [Peptide 86.0182]	6.50
RMLQQLLFT [Peptide 1525.17]	5.73
NLAEGKEVL [Peptide 9013.0016]	7.85
YLLHVIKSDL [Peptide 9013.0152]	7.66
IIYPNASLLV [Peptide 9013.0144]	8.00
VLKSDLVNEEA [Peptide 9013.0279]	7.85
LLIESTPFNV [Peptide 9013.0128]	8.40
KLTSLCVTL [Peptide 1537.03]	7.54
YIDDYLRNL [Peptide 1578.39]	7.57
TTAKLTIESV [Peptide 9013.0125]	5.39
MAFEYALLA [Peptide 1578.09]	7.28
VAWDSVYYM [Peptide 1578.46]	6.22
RLQLSNGNRTL [Peptide 9013.0286]	6.35
AIFGVNPTI [Peptide 86.0178]	7.89
LLLSNDNRTL [Peptide 9013.0205]	6.52
YLWWVNNQSV [Peptide 9013.0197]	8.92
ALDGNDISV [Peptide 1578.33]	7.39
FLDAFKKFL [Peptide 1578.31]	7.60
RVLQQLLFV [Peptide 1545.05]	6.00
LQGSVICFV [Peptide 1578.06]	7.48
KTITVSAEV [Peptide 9013.0083]	7.38
ALAEAMSQA [Peptide 1539.04]	8.72
NLAEGKEVLLL [Peptide 9013.0271]	7.74
GTFQQSTQEV [Peptide 9013.0175]	6.80
VLAEAMSHT [Peptide 1539.06]	7.80
SLMKFLQGSV [Peptide 1578.04]	7.51
TLDATYLWWV [Peptide 9013.0158]	6.86
IQNIIQNDV [Peptide 9013.0032]	5.71
